We begin with a simple list: items and their reported Ki.
molecular target: 5-HT1D (Homo sapiens); experiment: PDSP secondary radioligand displacement assay, Ki; type: binding; details: supplement xlsx
Sequence (P28221 whole entry, species assumed): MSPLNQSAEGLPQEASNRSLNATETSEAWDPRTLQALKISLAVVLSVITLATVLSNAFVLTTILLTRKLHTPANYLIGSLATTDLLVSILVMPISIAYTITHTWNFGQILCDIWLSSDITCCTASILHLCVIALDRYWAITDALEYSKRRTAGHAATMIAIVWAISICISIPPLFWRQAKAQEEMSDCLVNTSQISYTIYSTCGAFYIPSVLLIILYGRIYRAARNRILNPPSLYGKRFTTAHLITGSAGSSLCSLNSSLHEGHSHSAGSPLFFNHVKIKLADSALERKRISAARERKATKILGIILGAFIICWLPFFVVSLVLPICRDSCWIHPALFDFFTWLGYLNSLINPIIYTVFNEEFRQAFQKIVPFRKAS
Only the number, expressed in nM, is required.

CCC1CC2CC3c4[nH]c5cc(Br)ccc5c4CCN(C2)C13 (stereo not drawn) ... 7460

Attention now shifts to the item below.
Return reported Ki; argument: CC[C@H]1C[C@@H]2C[C@H]3c4[nH]c5cc(OC)ccc5c4CC[N@@](C2)[C@@H]13 [tabernanthine (3), tabernanthine, reference compound]
7660

###

Biological target: UniProt:P31645
Sequence (P31645 whole entry, species assumed): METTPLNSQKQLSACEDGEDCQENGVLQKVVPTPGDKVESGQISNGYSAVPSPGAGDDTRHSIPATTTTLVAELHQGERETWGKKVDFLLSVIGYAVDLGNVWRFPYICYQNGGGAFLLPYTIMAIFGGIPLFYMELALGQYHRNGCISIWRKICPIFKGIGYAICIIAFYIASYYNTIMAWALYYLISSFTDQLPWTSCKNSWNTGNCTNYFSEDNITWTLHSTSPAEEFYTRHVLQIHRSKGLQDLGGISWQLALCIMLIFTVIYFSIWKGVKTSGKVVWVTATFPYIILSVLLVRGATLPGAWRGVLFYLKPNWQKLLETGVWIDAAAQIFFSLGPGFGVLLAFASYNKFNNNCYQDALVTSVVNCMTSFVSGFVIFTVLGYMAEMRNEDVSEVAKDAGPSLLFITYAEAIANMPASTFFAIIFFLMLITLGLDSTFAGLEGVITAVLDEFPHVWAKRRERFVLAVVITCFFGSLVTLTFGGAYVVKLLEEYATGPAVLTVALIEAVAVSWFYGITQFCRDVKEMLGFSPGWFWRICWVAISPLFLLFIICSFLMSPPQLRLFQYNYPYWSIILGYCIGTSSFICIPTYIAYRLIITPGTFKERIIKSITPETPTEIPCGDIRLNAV
Test: PDSP secondary radioligand displacement assay, Ki
Assay type: binding
Conditions: supplement xlsx
From the text: Thirteen analogs, in addition to ibogamine itself (Figure ), were submitted to the PDSP for biological evaluation. Primary radioligand displacement assays were run on 44 neurotransmitter receptors and transporters to give a snapshot of the receptor affinity for each ligand.
Sorting guide: entries reporting Ki beneath 400 nM go in the 1 (yes) pile, the rest go in the 0 (no) pile.

Here's what some known entries look like.
C[C@H]1CC2CC3c4[nH]c5ccccc5c4CCN(C2)C31 (stereo partly shown) [7g] ... 1 (yes)
c1ccc2c3c([nH]c2c1)C1CC2C[C@H](C4CCOCC4)C1N(CC3)C2 (stereo partly shown) [7i] ... 0 (no)
CCC1CC2CC3c4[nH]c5cc(C(F)(F)F)ccc5c4CCN(C2)C13 (stereo not shown) [7e] ... 1 (yes)

Threshold test, Ki < 400 nM: CCC1CC2CC3c4[nH]c5cc(Cl)ccc5c4CCN(C2)C13 (stereo not shown) [7b]
1 (yes)

Threshold test, Ki < 400 nM: CC[C@H]1C[C@@H]2C[C@H]3c4[nH]c5cc(OC)ccc5c4CC[N@@](C2)[C@@H]13 [tabernanthine (3), tabernanthine, reference compound]
0 (no)

Threshold test, Ki < 400 nM: CCC1CC2CC3c4[nH]c5cc(Br)ccc5c4CCN(C2)C13 (stereo not shown) [7c]
1 (yes)

Threshold test, Ki < 400 nM: CC(C)[C@H]1CC2CC3c4[nH]c5ccccc5c4CCN(C2)C31 (stereo partly shown) [7h]
0 (no)

Threshold test, Ki < 400 nM: CCC1CC2CC3c4[nH]c5cc(F)ccc5c4CCN(C2)C13 (stereo not shown) [7a]
1 (yes)

Threshold test, Ki < 400 nM: CCC1C[C@H]2CC3c4[nH]c5ccccc5c4CCN(C2=O)C13 (stereo in doubt) [compound 22]
0 (no)

Threshold test, Ki < 400 nM: CC[C@H]1C[C@H]2C[C@H]3c4[nH]c5ccccc5c4CCN(C2)[C@@H]13 [ibogamine (1), ibogamine, reference compound]
1 (yes)
